The measured values listed here are drawn from PubChem BioAssay.

- Run description: PSAC antagonists in infected red cells, primary screen, cell-based, P. falciparum Indochina, OD700, 1 h (AID 1154)
- Test conditions: P. falciparum Indochina infected RBC osmotic lysis, higher = more signal, called active from +8 up or from −8 down
Quick reference: z-score of the listed items.
Readout kind: z-score

INSERT INTO assay_data (molecule, readout_kind, result_number) VALUES
  ('CCCCCN1CC=CC23O[C@@H]4/C=C\CCC(C)OC(=O)C4[C@H]2C(=O)N(CCCO)[C@@H]3C1=O (some centres not stated)', 'z-score', -0.404),
  ('CC(C)(C)OC(=O)CC[C@]1(C(=O)NCc2ccccc2)COC(c2ccc(OCCCO)cc2)=N1', 'z-score', 18.7),
  ('O=C(O)[C@H]1C[C@H]2C(=O)N[C@@H](Cc3ccccc3)C(=O)N2[C@H]1c1ccc(O)cc1', 'z-score', 2.03),
  ('COCCOC(=O)N1C(=O)[C@@]2(c3cc(C#CC4(O)CCCCCC4)ccc31)[C@H](C(=O)NC[C@H](O)c1ccccc1)[C@H]1C(=O)O[C@H](c3ccccc3)[C@H](c3ccccc3)N1[C@@H]2c1ccccc1OCCO', 'z-score', 2.13),
  ('C=C(COC)/C(=C/C[C@H](OC(C)=O)c1cccc(OCCO)c1)c1cc(C(=O)OC)ccc1OC', 'z-score', 10.1),
  ('C=C(/C(=C/C[C@H](OC(=O)c1ccncc1)c1cccc(OCCO)c1)c1cc(C(=O)OC)ccc1OC)C(C)C', 'z-score', 10.2),
  ('C=CCC(OC(C)=O)[C@@H]1[C@@H](N(Cc2cccc3ccccc23)C(=O)Cc2ccc(OC)cc2)c2cc(OCCCO)ccc2N1C(=O)Cc1ccc(OC)cc1 (some centres not stated)', 'z-score', 1.62);

###

- Measured on: Neurogenic locus notch homolog protein 3 (Homo sapiens) (UniProt Q9UM47)
- Sequence (Q9UM47 whole entry, looked up): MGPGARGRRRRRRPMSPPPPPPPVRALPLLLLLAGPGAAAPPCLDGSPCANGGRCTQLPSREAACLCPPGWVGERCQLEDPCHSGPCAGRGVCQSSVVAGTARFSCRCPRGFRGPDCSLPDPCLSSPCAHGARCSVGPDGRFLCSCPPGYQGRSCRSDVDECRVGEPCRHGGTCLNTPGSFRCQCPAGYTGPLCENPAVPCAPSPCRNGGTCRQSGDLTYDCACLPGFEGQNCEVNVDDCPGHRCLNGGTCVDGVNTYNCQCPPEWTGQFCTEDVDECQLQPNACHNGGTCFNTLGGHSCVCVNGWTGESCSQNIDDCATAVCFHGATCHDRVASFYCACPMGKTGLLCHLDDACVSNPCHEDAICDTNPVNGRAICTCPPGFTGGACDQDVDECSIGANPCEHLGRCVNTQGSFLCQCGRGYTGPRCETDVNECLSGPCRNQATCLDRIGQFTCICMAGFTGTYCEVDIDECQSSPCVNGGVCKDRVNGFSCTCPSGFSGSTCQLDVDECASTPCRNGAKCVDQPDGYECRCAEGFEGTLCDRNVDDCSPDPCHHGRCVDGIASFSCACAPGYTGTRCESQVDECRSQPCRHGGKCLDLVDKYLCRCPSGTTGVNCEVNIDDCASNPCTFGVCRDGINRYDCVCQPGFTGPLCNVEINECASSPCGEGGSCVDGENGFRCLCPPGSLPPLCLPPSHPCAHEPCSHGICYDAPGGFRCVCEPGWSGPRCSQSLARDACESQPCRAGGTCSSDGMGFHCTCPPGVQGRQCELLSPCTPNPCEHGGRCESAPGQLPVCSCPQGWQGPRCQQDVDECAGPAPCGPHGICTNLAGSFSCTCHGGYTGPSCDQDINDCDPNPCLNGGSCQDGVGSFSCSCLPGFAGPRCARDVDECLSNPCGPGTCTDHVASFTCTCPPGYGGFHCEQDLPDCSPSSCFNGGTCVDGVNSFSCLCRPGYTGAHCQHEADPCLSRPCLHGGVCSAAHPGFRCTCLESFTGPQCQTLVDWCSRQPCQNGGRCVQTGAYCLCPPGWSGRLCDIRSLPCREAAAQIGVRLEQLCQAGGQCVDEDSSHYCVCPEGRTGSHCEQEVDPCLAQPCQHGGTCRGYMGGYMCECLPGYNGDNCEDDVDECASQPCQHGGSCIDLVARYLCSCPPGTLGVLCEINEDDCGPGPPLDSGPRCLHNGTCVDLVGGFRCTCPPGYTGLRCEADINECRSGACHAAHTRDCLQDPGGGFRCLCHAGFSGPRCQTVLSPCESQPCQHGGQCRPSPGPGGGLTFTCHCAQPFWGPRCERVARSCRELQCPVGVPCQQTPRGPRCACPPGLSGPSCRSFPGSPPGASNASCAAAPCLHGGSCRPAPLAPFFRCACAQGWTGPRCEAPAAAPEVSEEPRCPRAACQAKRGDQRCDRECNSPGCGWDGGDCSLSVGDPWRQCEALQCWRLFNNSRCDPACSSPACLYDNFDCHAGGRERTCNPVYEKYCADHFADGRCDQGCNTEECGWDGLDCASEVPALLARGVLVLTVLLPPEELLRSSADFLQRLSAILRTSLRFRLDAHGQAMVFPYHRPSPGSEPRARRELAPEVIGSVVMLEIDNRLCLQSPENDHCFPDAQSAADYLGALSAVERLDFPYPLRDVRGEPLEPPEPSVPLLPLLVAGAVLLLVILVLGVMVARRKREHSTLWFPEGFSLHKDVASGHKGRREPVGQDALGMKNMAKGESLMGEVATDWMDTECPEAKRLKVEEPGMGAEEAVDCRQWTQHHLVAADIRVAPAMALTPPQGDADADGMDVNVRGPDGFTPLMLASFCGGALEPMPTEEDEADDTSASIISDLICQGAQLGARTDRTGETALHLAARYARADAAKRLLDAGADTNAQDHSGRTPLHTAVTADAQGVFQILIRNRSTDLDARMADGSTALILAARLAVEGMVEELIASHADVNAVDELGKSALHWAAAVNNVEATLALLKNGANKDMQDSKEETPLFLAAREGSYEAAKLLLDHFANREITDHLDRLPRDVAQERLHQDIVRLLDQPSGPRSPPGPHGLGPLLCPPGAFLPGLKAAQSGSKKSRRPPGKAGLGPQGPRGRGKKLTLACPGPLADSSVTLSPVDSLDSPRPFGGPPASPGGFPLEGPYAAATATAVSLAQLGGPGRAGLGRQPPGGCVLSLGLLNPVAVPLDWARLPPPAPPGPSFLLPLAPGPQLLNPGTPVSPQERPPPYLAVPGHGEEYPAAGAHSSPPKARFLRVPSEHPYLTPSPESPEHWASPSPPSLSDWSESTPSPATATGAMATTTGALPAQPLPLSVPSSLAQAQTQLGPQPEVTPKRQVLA
- Run description: NOTCH3 binders on small-molecule microarray, primary screen, biochemical, 635/667 nm fluorescence (AID 1096)
- Test conditions: NOTCH3 binding, 635 nm fluorescence, higher = more signal
Classify by measured composite z-score: Fulfilled if it is equal to or exceeds -0.9, Not fulfilled if it is smaller.

INSERT INTO measurements (compound, group) VALUES
  ('CCN(CC)c1ccc(N2CC=CC34O[C@@H]5C=CCOC(=O)[C@@H]5[C@H]3C(=O)N(C(CO)C(C)C)[C@@H]4C2=O)cc1 (some centres not stated)', 'Not fulfilled'),
  ('C=C(/C(=C/C[C@H](OC(=O)c1ccncc1)c1cccc(OCCO)c1)c1cc(C(=O)OC)ccc1OC)C(C)C', 'Fulfilled'),
  ('O=C(NO)[C@]1(Cc2ccccc2)N=C(c2ccc(OCCCO)cc2)O[C@@H]1c1ccccc1', 'Not fulfilled'),
  ('COCCOC(=O)N1C(=O)[C@@]2(c3cc(C#CCNC(N)=O)ccc31)[C@H](C(=O)NC[C@H](O)c1ccccc1)[C@H]1C(=O)O[C@H](c3ccccc3)[C@H](c3ccccc3)N1[C@@H]2c1ccc(O)cc1', 'Fulfilled'),
  ('C=C(C(=O)CC[C@@H](OC(C)=O)c1ccccc1OCCO)C(C)C', 'Fulfilled'),
  ('COc1ccc([Si](C)(C)[C@@H]2[C@@H](CC(=O)N3CCC[C@H]3CO)O[C@]3(C(=O)N(Cc4ccc(I)cc4)c4ccccc43)[C@H]2C)cc1', 'Fulfilled');

###

- Run description: cytotoxicity in IOSE-T80 ovarian epithelial cells, dose response, selectivity assay for PAX8 inhibitor project, cell-based, cherry-pick (AID 687032);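 also: cells exposed to compound for 96 h before reading; 0% = neutral control wells and -100% = 2 µM mitoxantrone kill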
- Test conditions: CellTiterGlo ATP luminescence, 96 h; series mostly up to 35 µM
Potency and affinity values are given separately. Inconclusive results are not listed. Activity calls are given as the source filed them.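 Rule for the calls: active = fitted half-maximal concentration for viability loss no higher than twice the top valid dose, in every repeat run; inconclusive = repeat runs disagree, flat partial loss, or poor curve fit; inactive = the rest.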
Readout kind: outcome

INSERT INTO measurements (compound, readout_kind, result) VALUES
  ('O=C(NC1CCCCC1)N1C[C@@H]2N[C@H](C1)C2c1ccc(-c2ccc(F)cc2)cc1 (some centres not stated)', 'outcome', 'inactive'),
  ('C[C@@H]1CN([C@H](C)CO)C(=O)c2cc(NS(=O)(=O)c3ccc(F)cc3)ccc2O[C@@H](C)CCCCO[C@@H]1CN(C)Cc1ccccc1', 'outcome', 'inactive'),
  ('CN1c2ccc(-c3ccc(C#N)cc3)cc2[C@@H]2[C@@H](CCN2C(=O)NC2CCCCC2)[C@@H]1CO', 'outcome', 'inactive'),
  ('C[C@@H]1CCCCO[C@@H](CN(C)Cc2ccc(Cl)c(Cl)c2)[C@H](C)CN([C@@H](C)CO)C(=O)c2cc(NS(=O)(=O)c3ccc(Cl)cc3)ccc2O1', 'outcome', 'inactive'),
  ('C[C@@H]1CCCCO[C@@H](CN(C)Cc2ccc(C(F)(F)F)cc2)[C@H](C)CN([C@@H](C)CO)C(=O)c2cc(NS(=O)(=O)c3ccc(F)cc3)ccc2O1', 'outcome', 'inactive'),
  ('O=C(O)CCCNC(=O)C(c1ccccc1)c1ccccc1', 'outcome', 'inactive'),
  ('O=C(C[C@H]1CC[C@@H]2[C@H](COC[C@H](O)CN2S(=O)(=O)c2cccc(F)c2)O1)Nc1ccc(-c2ccccc2)cc1', 'outcome', 'inactive');

###

- Measured on: Torsin-1A (Homo sapiens)
- Run description: torsin A binders from cell lysate, primary screen, small-molecule microarray, wild-type, 635/667 nm (AID 1149)
- Test conditions: COS7 hTOR1A-WT lysate, 635 nm fluorescence, higher = more signal
Each entry below carries its reported composite z-score.
Readout kind: composite z-score

INSERT INTO measurements (compound, result_number) VALUES
  ('C=CCNC(=O)[C@@H]1[C@H]2C(=O)O[C@H](c3ccccc3)[C@H](c3ccccc3)N2[C@H](c2ccc(O)cc2)[C@@]12C(=O)N(C(=O)OCCOC)c1ccc(C#Cc3ccc(OC)cc3)cc12', 0.808),
  ('CC(C)(C)OC(=O)CC[C@@]1(C(=O)NCc2ccccc2)N=C(c2ccc(OCCCO)cc2)O[C@@H]1c1ccccc1CN=[N+]=[N-]', 0.807),
  ('CC(C)[C@@H](C(=O)O)n1cc(-c2ccccn2)nn1', 0.417),
  ('C=CCC(OC(C)=O)[C@@H]1[C@@H](N(Cc2cc3ccccc3o2)C(=O)c2ccc(-c3ccccc3)cc2)c2cc(OCCCO)ccc2N1C(=O)c1ccc(-c2ccccc2)cc1 (some centres not stated)', -0.347),
  ('COCCOC(=O)N1C(=O)[C@@]2(c3cc(C#CCNC(N)=O)ccc31)[C@H](C(=O)NC[C@H](O)c1ccccc1)[C@H]1C(=O)O[C@H](c3ccccc3)[C@H](c3ccccc3)N1[C@@H]2c1ccc(O)cc1', 0.397),
  ('CCCCC(=C=CC[C@@H](O)c1ccc(OCCO)cc1)C[C@@H](O)c1cc(Cl)cc(Cl)c1O', -0.0726),
  ('CO[C@H]1O[C@H](CO)[C@@H](OC(=O)Nc2ccccc2)[C@H](OC(=O)Nc2ccccc2-c2ccccc2)[C@@H]1OC(=O)Nc1ccccc1-c1ccccc1', 1.17);

###

- Test system: glycogen synthase kinase-3 (GSK3A per assay name; protocol says GSK3B)
- Run description: GSK3 binders on small-molecule microarrays, primary screen, biochemical, small-molecule microarray, 635 nm fluorescence, GSK3A (AID 1103); also: the record names both GSK3A and GSK3B
- Test conditions: small-molecule microarray binding, fluorescence 635 nm; higher = more signal
Mark Y for reported composite z-score of -0.1 or greater; mark N for anything smaller.

INSERT INTO measurements (compound, group) VALUES
  ('CCN(CC)c1ccc(N2CC=CC34O[C@@H]5C=CCOC(=O)[C@@H]5[C@H]3C(=O)N(C(CO)C(C)C)[C@@H]4C2=O)cc1 (stereo partly specified)', 'N'),
  ('CC(C)C[C@@H]1NC(=O)[C@@H]2C[C@H](C(=O)NCCCCCNC(=O)CS)[C@H](c3cccc(OCCO)c3)N2C1=O', 'Y'),
  ('C=CCC(OC(C)=O)[C@@H]1[C@@H](N(Cc2ccc(-c3cccc(C(F)(F)F)c3)o2)C(=O)c2ccc(-c3ccccc3)cc2)c2cc(OCCCO)ccc2N1C(=O)Cc1ccc(OC)cc1 (stereo partly specified)', 'N'),
  ('C[C@@H](OCc1ccccc1)C1NC(=O)[C@@]23C(=O)N[C@@H](Cc4ccccc4)C2[C@H](C)[C@@]2(C)O[C@H]2C3/C=C/C/C=C\CNC(=O)[C@@H]2CCCN2C1=O (stereo partly specified)', 'N'),
  ('COCCCNC(=O)[C@@]1(C)c2ccccc2C(=O)N(Cc2cc(F)cc(C(F)(F)F)c2)[C@H]1c1ccc(CO)cc1', 'N'),
  ('O=C(NC1CC1)[C@@H]1c2ccccc2C(=O)N(Cc2ccccc2C(F)(F)F)[C@H]1c1ccc(CO)cc1', 'Y');

###

Below: a set of entries, each annotated with reported composite z-score.
- Measured on: Focal adhesion kinase 1 (Homo sapiens) (UniProt Q05397)
- Sequence (Q05397 whole entry, looked up): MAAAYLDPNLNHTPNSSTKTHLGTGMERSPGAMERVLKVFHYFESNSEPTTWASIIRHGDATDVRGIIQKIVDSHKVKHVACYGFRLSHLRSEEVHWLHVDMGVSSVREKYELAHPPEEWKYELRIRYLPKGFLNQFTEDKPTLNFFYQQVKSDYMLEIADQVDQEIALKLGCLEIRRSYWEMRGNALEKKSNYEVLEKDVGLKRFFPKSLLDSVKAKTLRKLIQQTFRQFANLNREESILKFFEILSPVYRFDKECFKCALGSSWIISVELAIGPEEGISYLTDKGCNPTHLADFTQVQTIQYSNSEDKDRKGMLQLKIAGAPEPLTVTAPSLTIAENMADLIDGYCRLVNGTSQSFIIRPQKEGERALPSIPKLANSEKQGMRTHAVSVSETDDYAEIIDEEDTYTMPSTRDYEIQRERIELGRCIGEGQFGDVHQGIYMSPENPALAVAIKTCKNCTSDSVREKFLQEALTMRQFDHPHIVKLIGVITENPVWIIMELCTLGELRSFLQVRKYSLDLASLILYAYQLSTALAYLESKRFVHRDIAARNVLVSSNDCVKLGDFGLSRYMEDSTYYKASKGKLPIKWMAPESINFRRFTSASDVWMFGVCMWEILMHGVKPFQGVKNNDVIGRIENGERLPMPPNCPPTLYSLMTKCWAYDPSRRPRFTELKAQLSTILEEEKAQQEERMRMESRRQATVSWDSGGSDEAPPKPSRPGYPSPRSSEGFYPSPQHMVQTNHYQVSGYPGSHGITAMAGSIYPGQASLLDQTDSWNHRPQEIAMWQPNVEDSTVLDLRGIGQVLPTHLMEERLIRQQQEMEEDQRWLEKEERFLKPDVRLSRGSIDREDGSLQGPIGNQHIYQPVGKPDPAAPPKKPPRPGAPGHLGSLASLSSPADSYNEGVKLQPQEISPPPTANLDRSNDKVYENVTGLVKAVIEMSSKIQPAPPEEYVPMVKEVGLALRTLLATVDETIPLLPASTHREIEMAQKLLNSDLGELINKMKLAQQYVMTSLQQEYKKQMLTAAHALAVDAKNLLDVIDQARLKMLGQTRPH
- Run description: small-molecule microarray binders of FAK, primary screen, biochemical, 635/667 nm fluorescence, BSA, DTT (AID 1130);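 also: composite of spot emission at 667 nm and signal to noise over triplicate slides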
- Test conditions: PTK2 binding, 635 nm fluorescence, higher = more signal
Readout kind: composite z-score

INSERT INTO assay_data (compound, readout_kind, result) VALUES
  ('CC(C)C[C@@H]1NC(=O)[C@@]23C(=O)N[C@@H](Cc4ccccc4)C2[C@H](C)[C@@]2(C)O[C@H]2C3/C=C/CC/C=C/CNC(=O)[C@@H](C)NC1=O (stereo not given in full)', 'composite z-score', 0.138),
  ('[N-]=[N+]=NCc1ccccc1C[C@@]1(C(=O)NCc2ccccc2)N=C(c2ccc(OCCCO)cc2)O[C@@H]1c1ccccc1', 'composite z-score', 0.621),
  ('C=C1C=C(Br)C2(OCCCO2)[C@H]2OC12 (stereo not given in full)', 'composite z-score', 0.0354),
  ('COc1ccc(C#Cc2ccc3c(c2)[C@]2(C(=O)N3)[C@H](c3ccc(O)cc3)N3[C@H](c4ccccc4)[C@H](c4ccccc4)OC(=O)[C@H]3[C@@H]2C(N)=O)cc1', 'composite z-score', 0.627),
  ('C[N+](C)(C)CCCC[C@@H]1NC(=O)[C@H]2C[C@@H](C(=O)NCCCCCN)[C@@H](c3cccc(OCCO)c3)N2C1=O', 'composite z-score', 0.535),
  ('CN(C)CCCC[C@@H]1NC(=O)[C@@H]2C[C@H](C(=O)NCCCCCNC(=O)CS)[C@H](c3cccc(OCCO)c3)N2C1=O', 'composite z-score', 0.387),
  ('CCCCC(=C=CC[C@H](O)c1cccc(OCCO)c1)CCO', 'composite z-score', 0.44),
  ('CC(C)C(CO)N1C(=O)[C@@H]2C3C(=O)OCCC/C=C\[C@H]3OC23C=CCN(C(C)C)C(=O)[C@@H]13 (stereo not given in full)', 'composite z-score', 0.0086),
  ('COC(=O)c1c2oc(c1C(=O)OC)C(=O)N[C@@H](C(C)C)Cn1nncc1C1(CCCCC1)NC(=O)N[C@H](CO)CC2', 'composite z-score', 0.195),
  ('CCOC(=O)C[C@H]1[C@H](OC(=O)c2ccc(-c3ccccc3)cc2)[C@@H](NC(=O)C2CCCCC2)c2cc(OCCCO)ccc2N1C(=O)c1ccc2ccccc2n1', 'composite z-score', 0.347),
  ('COc1ccc([Si](C)(C)[C@H]2[C@H](CC(=O)N3Cc4ccccc4C[C@H]3CO)O[C@@]3(C(=O)N(Cc4cccc(N5C(=O)COc6ccccc65)c4)c4ccccc43)[C@@H]2C)cc1', 'composite z-score', 0.81),
  ('COCCOC(=O)N1C(=O)[C@@]2(c3cc(C#CCCO)ccc31)[C@H](c1ccccc1OCCO)N1[C@H](c3ccccc3)[C@H](c3ccccc3)OC(=O)[C@H]1[C@@H]2C(=O)NC[C@H](O)c1ccccc1', 'composite z-score', 1.07),
  ('CC(C)C(=C=CC[C@H](O)c1ccc(OCCO)cc1)C[C@H](O)COCc1ccccc1', 'composite z-score', -0.0245),
  ('C=CCC(OC(C)=O)[C@@H]1[C@@H](N(Cc2cccc3ccccc23)C(=O)c2cccc3ccccc23)c2cc(OCCCO)ccc2N1C(=O)Cc1ccc(OC)cc1 (stereo not given in full)', 'composite z-score', -0.0125),
  ('C=CCOC(=O)[C@H]1[C@@H]2C(=O)O[C@@H](c3ccccc3)[C@@H](c3ccccc3)N2[C@@H](c2ccc(OCCOC(=O)[C@H]3C[C@H]4C(=O)N5CCC[C@H]5C(=O)N4[C@H]3c3cccc(OCCO)c3)cc2)[C@]12C(=O)Nc1ccccc12', 'composite z-score', 0.903),
  ('CO[C@H]1O[C@H](CO)[C@@H](OC(=O)Nc2ccccc2)[C@H](OC(=O)Nc2ccccc2-c2ccccc2)[C@H]1OC(=O)Nc1ccccc1-c1ccccc1', 'composite z-score', 1.17),
  ('C=CCNC(=O)[C@H]1[C@@H]2C(=O)O[C@@H](c3ccccc3)[C@@H](c3ccccc3)N2[C@@H](c2ccccc2OCCO)[C@]12C(=O)N(C(=O)OCCOC)c1ccc(C#CCCO)cc12', 'composite z-score', 1.02),
  ('C=CC[C@]1(C(=O)N2CCCCC2)COC(c2ccc(OCCCO)cc2)=N1', 'composite z-score', -0.0161),
  ('CC(=O)NCCCC[C@@H]1NC(=O)[C@@H]2C[C@H](C(=O)O)[C@H](c3cccc(OCCO)c3)N2C1=O', 'composite z-score', 0.341),
  ('CC(C)N1C(=O)c2ccccc2[C@@H](C(=O)NCc2ccccc2)[C@@H]1c1ccc(CO)cc1', 'composite z-score', 0.427);
